# Normalized Intensity (%) per entry
# test.target: monoclonal antibody D32.39
surface (amide) = not defined here
endpoint.label: Normalized Intensity (%)

1) Ac-LRRQFKVV-{surface (amide)} (reading uncertain; also: C-terminus amide-linked to surface) [LRRQFKVV, surface-immobilized peptide]: 44
2) Ac-LRRQF-{surface (amide)} (reading uncertain; also: C-terminus amide-linked to surface) [LRRQF, surface-immobilized peptide]: 10
3) Ac-RQFKV-{surface (amide)} (reading uncertain; also: C-terminus amide-linked to surface) [RQFKV, surface-immobilized peptide]: 16
4) Ac-KVVT-{surface (amide)} (reading uncertain; also: C-terminus amide-linked to surface) [KVVT, surface-immobilized peptide]: 11
